The reported numbers originate from ChEMBL document CHEMBL4007484.

The compounds listed here are annotated with their concentration at 7 h.
- test_details: Plasma concentration in CD-1 mouse at 10 mg/kg, ip or 20 mg/kg, po administered via gavage as single dose measured at 7 hrs post dose by LC-MS/MS analysis
- Assay type: ADME, organism-based
measurement_kind: concentration at 7 h (nM)

>>> value_reported("O=C(Nc1ccc(Cl)cc1)C1CN(C(=O)c2cccc(-c3ccncc3)c2)CC(F)(F)C1 (configuration not stated)")
2400
>>> value_reported("O=C(Nc1ccc(Cl)cc1)C1CN(C(=O)c2cc(F)cc(-c3ccncc3)c2)CC(F)(F)C1 (configuration not stated)")
1300

----------
- Species: Homo sapiens
- test_details: Inhibition of Rho/MRTF/SRF pathway in human primary dermal fibroblasts assessed as inhibition of TGF-beta-stimulated ACTA2 gene expression by measuring ACTA2 mRNA level at 10 uM after 24 hrs by qRT-PCR method relative to control
- Parameters: scale not given: the % may be the effect or the level left
The compounds listed here are annotated with their Activity.
measurement_kind: Activity (%)

>>> value_reported("O=C(Nc1ccc(Cl)cc1)C1CN(C(=O)c2cccc(-c3ncccn3)c2)CC(F)(F)C1 (stereo unspecified)")
65
>>> value_reported("C=C1CC(C(=O)Nc2ccc(Cl)cc2)CN(C(=O)c2cccc(-c3ccco3)c2)C1 (stereo unspecified)")
9.5
>>> value_reported("O=C(Nc1ccc(Cl)cc1)C1CN(C(=O)c2cccc(-c3ccccn3)c2)CC(F)(F)C1 (stereo unspecified)")
37
>>> value_reported("O=C(Nc1ccc(Cl)cc1)C1CN(C(=O)c2cccc(-c3ccco3)c2)CC(F)(F)C1 (stereo unspecified)")
9.3
>>> value_reported("O=C(Nc1ccc(Cl)cc1)C1CN(C(=O)c2cncc(-c3ccncc3)c2)CC(F)(F)C1 (stereo unspecified)")
190
>>> value_reported("O=C(Nc1ccc(Cl)cc1)C1CN(C(=O)c2cccc(-n3cccn3)c2)CC(F)(F)C1 (stereo unspecified)")
140

----------
- System: Liver
- test_details: Half life in CD-1 mouse liver microsomes at 1 uM in presence of NADPH by LC-MS/MS analysis
- Assay type: ADME, microsome
Output: class label from t1/2. Mapping: 1: < 2 min; 2: ≥ 2 min and < 10 min; 3: ≥ 10 min

>>> group_label("O=C(Nc1ccc(Cl)cc1)C1CN(C(=O)c2cccc(-c3cn[nH]c3)c2)CC(F)(F)C1 (centres undefined)")
3
>>> group_label("O=C(Nc1ccc(Cl)cc1)C1CCCN(C(=O)c2cccc(-c3ccco3)c2)C1 (centres undefined)")
1
>>> group_label("O=C(Nc1ccc(Cl)cc1)C1CN(C(=O)c2cc(-c3ccco3)ccn2)CC(F)(F)C1 (centres undefined)")
2
>>> group_label("O=C(Nc1ccc(Cl)cc1)C1CN(C(=O)c2cccc(-c3ccco3)c2)CC(F)(F)C1 (centres undefined)")
2
>>> group_label("C=C1CC(C(=O)Nc2ccc(Cl)cc2)CN(C(=O)c2cccc(-c3ccco3)c2)C1 (centres undefined)")
1
>>> group_label("CC1(C(=O)Nc2ccc(Cl)cc2)CCCN(C(=O)c2cccc(-c3ccco3)c2)C1 (centres undefined)")
1
>>> group_label("O=C(Nc1ccc(Cl)cc1)C1CN(C(=O)c2cccc(-c3ccccn3)c2)CC(F)(F)C1 (centres undefined)")
2
>>> group_label("Cn1cncc1-c1cccc(C(=O)N2CC(C(=O)Nc3ccc(Cl)cc3)CC(F)(F)C2)c1 (centres undefined)")
3
>>> group_label("O=C(Nc1ccc(Cl)cc1)C1CCCN(C(=O)c2cccc(-c3cn[nH]c3)c2)C1 (centres undefined)")
2
